B1: glmS ribozyme (parent)
chain: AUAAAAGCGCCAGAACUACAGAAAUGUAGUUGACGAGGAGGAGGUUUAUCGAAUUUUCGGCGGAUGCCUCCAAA

- Variants of: B1
- method_description: self-cleavage kobs at 10000 uM GlcN6P; higher = faster cleavage; RNA array
- stated_conditions: with glucosamine-6-phosphate
This sample holds only a part of the variants without activity.
Rule: self-cleavage kobs at 10000 uM GlcN6P under 0.0002 s⁻¹ gives class 0, otherwise class 1.

Observe how each entry below is paired with its result.
A12G G32U C70U; class 1
C34U U69G; class 1
A14G G32A A52G; class 1
G40A U45A G66A; class 1
G32C A39G; class 0
U57A C58G; class 0
C10G U49C; class 0
C8U G60U C68U; class 0

Moving on to the next variant.
Is self-cleavage kobs at 10000 uM GlcN6P for A14G C70U C71G at or above 0.0002 s⁻¹?
class 0
